tested on: spleen T cells; assay: T cell proliferation inhibition (CFSE, FACS), CD3/CD28-activated spleen T cells; type: cell-based, C57BL/6 mice; details: Mus musculus, T-cell; Table 3 (compounds not belonging to Formula 1); 30 μM; read-out: Proliferation inhibition rate (%)
reported_metric: inhibition at 30 µM (%)
Write the value in % as a bare number.

For orientation, consider the following solved cases.
O=C(NCCCc1ccccc1)c1ccccc1Br [Compound 4] : 12
Cc1ccccc1NC(=O)c1ccccc1Br [Compound 2] : 10
CCCCNC(=O)c1ccccc1F [Compound 81] : 2
O=C(Nc1ccccc1Br)c1ccccc1Br [Compound 9] : 0
O=C(Nc1ccccc1)c1ccncc1Br [Compound 1] : 6
CCCCCCCCCNC(=O)/C=C/c1ccccc1Br [Compound 10] : 9

Please look at the following compound next.
Item under review: Cc1ccccc1NC(=O)c1ccccc1F [Compound 3] . Reported inhibition at 30 µM?
15
